All figures here come from patent US11529350B2.

# EXPERIMENTAL_TARGET: TNK1 (Homo sapiens)
# Sequence (Q13470 whole entry): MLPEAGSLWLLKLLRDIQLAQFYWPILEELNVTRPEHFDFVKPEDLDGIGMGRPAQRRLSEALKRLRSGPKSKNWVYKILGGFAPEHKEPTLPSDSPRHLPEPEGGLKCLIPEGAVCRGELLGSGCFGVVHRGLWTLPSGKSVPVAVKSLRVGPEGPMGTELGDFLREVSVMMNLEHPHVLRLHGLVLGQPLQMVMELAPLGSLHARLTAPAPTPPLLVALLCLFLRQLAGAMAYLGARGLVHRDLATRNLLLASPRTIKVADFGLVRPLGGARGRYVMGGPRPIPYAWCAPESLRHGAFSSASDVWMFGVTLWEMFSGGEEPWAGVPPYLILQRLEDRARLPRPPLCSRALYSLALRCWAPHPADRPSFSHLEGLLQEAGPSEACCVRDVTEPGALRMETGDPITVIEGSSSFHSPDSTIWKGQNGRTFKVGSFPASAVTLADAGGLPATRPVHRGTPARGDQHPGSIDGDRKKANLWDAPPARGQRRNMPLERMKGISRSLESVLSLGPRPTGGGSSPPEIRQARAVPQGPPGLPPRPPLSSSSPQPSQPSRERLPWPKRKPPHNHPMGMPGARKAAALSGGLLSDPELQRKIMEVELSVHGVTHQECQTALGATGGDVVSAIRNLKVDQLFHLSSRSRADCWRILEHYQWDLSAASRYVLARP
# RUN_DESCRIPTION: TNK1 NanoBRET target engagement assay (HEK293)
# Format: cell-based
# Parameters: host or cells: HEK293
# REPORTED_CONDITIONS: HEK293 cells, 2 hours; read-out: NanoBRET TE Assay (HEK293) IC50
pIC50: −log10 of the molar value.
MEASUREMENT_KIND: pIC50

Before answering, review these 5 worked examples.
>  <SMILES_NOTATION>
COc1cc(N2CCN(C)CC2)c(C)cc1Nc1ncc(C#N)c(Nc2cccnc2N(C)C)n1

>  <OBS_VALUE>
6.00 to 6.82

$$$$
>  <SMILES_NOTATION>
COc1cc(N2CCN(C)CC2)c(C)cc1Nc1ncc(Cl)c(Nc2cccnc2N2CCNC2=O)n1

>  <OBS_VALUE>
> 6.82

$$$$
>  <SMILES_NOTATION>
COc1cc(N2CCN(C)CC2)c(C)cc1Nc1ncc(Cl)c(Nc2cccnc2N2CCCC2)n1

>  <OBS_VALUE>
6.00 to 6.82

$$$$
>  <SMILES_NOTATION>
COc1cc(N2CCN(C)CC2)c(C)cc1Nc1ncc(Cl)c(Nc2cccnc2N(C)C)n1

>  <OBS_VALUE>
6.00 to 6.82

$$$$
>  <SMILES_NOTATION>
COc1cc(N2CCN(C)CC2)ccc1Nc1ncc(Cl)c(Nc2cccnc2N2CCCC2=O)n1

>  <OBS_VALUE>
> 6.82

$$$$

Request: What pIC50 value was documented for this compound, CC(C)Oc1cc(N2CCN(C)CC2)ccc1Nc1ncc(Cl)c(Nc2cccnc2N(C)C)n1 ?
Result: < 6.00

Request: Which pIC50 value belongs to COc1cc(N2CCN(C)CC2)c(Cl)cc1Nc1ncc(Cl)c(Nc2cccnc2N2CCNC2=O)n1 ?
Result: > 6.82

Request: If you can, please state the reported pIC50 value of COc1cc(N2CCN(C)CC2)c(Cl)cc1Nc1ncc(Cl)c(Nc2cccnc2N2CCCCC2=O)n1 .
Result: 6.00 to 6.82
